Source of measurements: PubChem BioAssay

# experiment-notes: endothelial E-selectin expression blockers – imaging, HUVEC, immunofluorescence, MLSMR starter and 10KST1 sets, primary screen (AID 487);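 note: 100% = median nuclei count of all wells on the same plate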
# condition: HUVEC TNFalpha-induced E-selectin immunofluorescence imaging, at 2 µM; measured here: cell number, toxicity
In this section we review reported nuclei count values for a set of compounds.
reported-metric: nuclei count (%)

>>> df
                                    compound  reported_value
 0                       Cc1ccccc1NC1=NCCCS1            74.1
 1             CCCCCCOc1ccc(CN2CCN(C)CC2)cc1             128
 2       CCCCCCn1c(O)c(C(C)=NC)c(=O)[nH]c1=O             162
 3  OC1(c2ccc(F)cc2)CCNC1 (stereo unspecified)             147
 4               CC(=O)CC(C)(C)n1c[n+](C)nn1             155
 5  CCN1CCN(C(=O)COc2cc(=O)n(CC)c3ccccc23)CC1             115
 6   N#Cc1ccccc1Cn1cc(C(=O)c2ccco2)c2ccccc21            80.5
 7  O=c1[nH]c(=O)n(CCc2ccccc2)c(O)c1C=NCCN1CCNCC1             123
 8  O=c1c(C=NCCN2CCNCC2)c(O)n(C2CCCCC2)c(=O)n1C1CCCCC1             138
 9  COc1ccc(CN2CCN(C(=O)Cc3ccccc3)CC2)c(OC)c1             114
10  OC(CNC1CCCCC1)c1ccccc1 (stereo unspecified)             105
11  Cc1ccc(-c2nc(CS(=O)CC(=O)N3CCC4(CC3)OCCO4)c(C)o2)cc1 (stereo unspecified)             101
12  CC(C)[C@@]1(NC(=O)[C@@H]2C=C3c4cccc5[nH]cc(c45)C[C@H]3N(C)C2)O[C@@]2(O)[C@@H]3CCCN3C(=O)[C@H](Cc3ccccc3)N2C1=O             114
13            CCN1CCN(Cc2cc(Br)cc(OC)c2O)CC1             123
14                          Nc1ccnn1C1CCNCC1             127
15                     Nc1ccccc1C(=O)OC1CSC1            93.5
16  Cc1ccccc1-n1c(O)c(C=NCCN2CCOCC2)c(=O)[nH]c1=O             135
17  Clc1ccc(COC(Cn2ccnc2)c2ccc(Cl)cc2Cl)c(Cl)c1 (stereo unspecified)             144
18               CCOC(=O)c1cccc([P+](=O)O)c1             106
19  CCOC(=O)[C@]1(C#N)[C@@H]2C=CC(C(C)=O)=CN2[C@@H](C(N)=O)[C@@H]1c1ccsc1             212
20  CCCCCCn1c(O)c(C=NCCN2CCCCC2)c(=O)[nH]c1=O             141
21     CCCSP1(=S)NCCCO1 (stereo unspecified)             122
22      C=CCn1c(O)c(C(C)=NCCCO)c(=O)[nH]c1=O             156
23  CCc1ccc(OCCCN=C(C)c2c(O)n(C)c(=O)n(C)c2=O)cc1            95.1
24  CCN(CC)CCN=C(C)c1c(O)n(-c2ccccc2OC)c(=O)[nH]c1=O            88.8
25  CC(=C1C(=O)c2ccccc2C1=O)N1CCN(CCN=Cc2c(O)n(C)c(=O)n(C)c2=O)CC1             138
26  O=c1[nH]c(=O)n(Cc2ccc(F)cc2)c(O)c1C=NCCCN1CCOCC1             101
27  COc1ccc(CCn2c(O)c(C=NCc3cccnc3)c(=O)[nH]c2=O)cc1OC            90.2
28  COc1ccc(C2NCc3ccc4c(c3-n3cccc32)OCO4)cc1O (stereo unspecified)              99
29  C=CCn1c(O)c(C=Nc2ccc(N(CC)CC)cc2)c(=O)[nH]c1=O            88.8
30              C(#CCN1CCOCC1)COCC#Cc1ccccc1             112
31  Cc1ccc(C)c(C2(O)CC(C)N(C)CC2C)c1 (stereo unspecified)             111
32  COc1ccc(CCn2c(O)c(C=NCCCN(C)C)c(=O)[nH]c2=O)cc1OC             108
33     CN(C)CCOC(=O)c1cn(Cc2ccccc2)c2ccccc12             182
34  C#CCN(C)C(C)Cc1ccccc1 (stereo unspecified)             124
35  CCC(C)NC(=O)c1c(N)n(CC2CCCO2)c2nc3ccccc3nc12 (stereo unspecified)             128
36  CC[N+]1(C)CCCC(OC(=O)C(O)(c2ccccc2)c2ccccc2)C1 (stereo unspecified)             119
37  COc1ccccc1-n1c(O)c(C=NCCCn2ccnc2)c(=O)[nH]c1=O             150
38  Cc1ccc(Cn2c(C)c3cnn(CC(=O)N4CCC5(CC4)OCCO5)c(=O)c3c2C)cc1             110
39  CC12CCCCC1=[N+]([O-])CN2O (stereo unspecified)             118
40  Cc1c(N=Cc2c(O)n(Cc3ccco3)c(=O)[nH]c2=O)c(=O)n(-c2ccccc2)n1C             133
41  CCC(=NCCOc1ccc(Cl)cc1)c1c(O)n(C)c(=O)n(C)c1=O            99.1
42  COc1ccc(OC)c(C(O)C(C)N)c1 (stereo unspecified)             108
43  CCOc1cc2[nH]c(=S)n(CCCC(=O)N3CCC4(CC3)OCCO4)c(=O)c2cc1OCC             107
44  O=c1[nH]c(=O)n(-c2ccc(F)cc2)c(O)c1C=Nc1ccccc1N1CCCC1             118
45  NCC(CC(=O)O)c1ccc(Cl)cc1 (stereo unspecified)             112

###

In this section we review reported NADPH fluorescence slope values for a set of molecules.
# system-tested: Voltage-gated potassium channel subunit beta-2 (Rattus norvegicus) (UniProt P62483)
# Sequence (P62483 whole entry, looked up): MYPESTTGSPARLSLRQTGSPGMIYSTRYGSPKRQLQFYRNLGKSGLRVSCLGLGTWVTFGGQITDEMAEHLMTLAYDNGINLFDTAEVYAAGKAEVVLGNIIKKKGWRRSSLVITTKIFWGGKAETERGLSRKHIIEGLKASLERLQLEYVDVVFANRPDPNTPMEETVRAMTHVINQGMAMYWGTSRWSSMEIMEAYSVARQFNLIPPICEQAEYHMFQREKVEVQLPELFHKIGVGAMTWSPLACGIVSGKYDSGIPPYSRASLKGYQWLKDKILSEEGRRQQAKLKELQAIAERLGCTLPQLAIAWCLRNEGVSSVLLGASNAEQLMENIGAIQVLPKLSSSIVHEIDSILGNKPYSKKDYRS
# experiment-notes: enhancers of rat Kvbeta2 NADPH turnover – biochemical, NADPH fluorescence, primary screen (AID 623);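 note: fluorescence intensity change per second fitted from 20 to 320 s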
# condition: Recombinant KvBeta, NADPH fluorescence decrease slope, 10 min; at 10 µM; stronger effect = lower value
The source made the active and inactive calls.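 How the source made its calls: active means NADPH fluorescence slope more negative than the mean of all samples by about 3 SD, 99.7% confidence; inactive means the rest.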
reported-metric: NADPH fluorescence slope

>>> print(df.to_string())
                                   molecule                             system_tested        reported_value
0  CC(C)OC(=O)c1c(N)n(Cc2ccco2)c2nc3ccccc3nc12  Voltage-gated potassium channel subunit beta-2 (Rattus norvegicus) (UniProt P62483)      1e-05 (inactive)
1    CCCCSP1(=S)NCCCO1 (stereo unspecified)  Voltage-gated potassium channel subunit beta-2 (Rattus norvegicus) (UniProt P62483)  -0.000374 (inactive)
2  COc1ccc(Cn2c(O)c(C=NCCCn3ccnc3)c(=O)[nH]c2=O)cc1  Voltage-gated potassium channel subunit beta-2 (Rattus norvegicus) (UniProt P62483)   -1.5e-05 (inactive)
3  COc1ccc(C2NCc3ccc4c(c3-n3cccc32)OCO4)cc1O (stereo unspecified)  Voltage-gated potassium channel subunit beta-2 (Rattus norvegicus) (UniProt P62483)   -4.4e-05 (inactive)
4     COC(=O)CC1(Cc2ccccc2)C(=O)NC(=O)NC1=O  Voltage-gated potassium channel subunit beta-2 (Rattus norvegicus) (UniProt P62483)   -2.7e-05 (inactive)
5   CN1C(=O)C(Cc2cccc3ccccc23)C(=O)N(C)C1=O  Voltage-gated potassium channel subunit beta-2 (Rattus norvegicus) (UniProt P62483)   -4.8e-05 (inactive)

###

# experiment-notes: TLR3 IRF3 reporter activation blockers – cell-based, poly I:C stimulus, luciferase, 10K MLSCN set, primary screen (AID 602277)
# condition: HEK293-TLR3 RL24 IRF3 luciferase reporter, at 10 µM
Active and inactive are the calls of the source.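 How the source made its calls: active means inhibition of the reporter signal at or above 50%; inactive means inhibition below 50%.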
Outcomes: active, inactive

In [3]: df
Out[3]:
                                    compound       cat
 0  Cc1nn(Cc2ccccc2Cl)c(Cl)c1C(=O)OCC(=O)NCc1ccco1  inactive
 1  Clc1ccc(COC(Cn2ccnc2)c2ccc(Cl)cc2Cl)c(Cl)c1 (stereo not given)  inactive
 2  Clc1ccc(CSC(Cn2ccnc2)c2ccc(Cl)cc2Cl)cc1 (stereo not given)  inactive
 3          CSc1ccc(C(=O)C(C)(C)N2CCOCC2)cc1  inactive
 4  Cc1ccccc1-n1c(O)c(C=NCCN2CCOCC2)c(=O)[nH]c1=O  inactive
 5           CN1CCN(c2c[nH]c(=O)[nH]c2=O)CC1  inactive
 6  O=C(Cc1ccccc1)OC(COCc1ccccc1)CN1CCOCC1 (stereo not given)  inactive
 7     CN1CCC(OC(=O)C2c3ccccc3Oc3ccccc32)CC1  inactive
 8  Cn1c(=O)cc(SCC(=O)N2CCC3(CC2)OCCO3)c2ccc(Cl)cc21  inactive
 9          COc1ccccc1/C=C1/C(=N/O)C2CCN1CC2  inactive
10  CC1(C)C(c2ccccc2)=NC(c2cccnc2)N1O (stereo not given)  inactive
11          CC(C)CC12CN3CCN(CC(C3)/C1=N/O)C2  inactive
12  COc1ccc(C2SCC(=O)Nc3c2c(=O)[nH]n3C2CCCCCC2)cc1OC (stereo not given)  inactive
13                    CCCC(=O)OCC[N+](C)(C)C  inactive
14    CCOCC(=O)NC1CCSC1=O (stereo not given)  inactive
15  CC(=NCCCN1CCOCC1)c1c(O)n(-c2ccccc2C)c(=O)[nH]c1=O  inactive
16  COC1=CC(=O)OC(/C=C/c2ccccc2)C1 (stereo not given)  inactive
17  CC(=NCc1cccnc1)c1c(O)n(Cc2ccccc2)c(=O)[nH]c1=O  inactive
18     Cc1cc(OCC(=O)O)c2c3c(c(=O)oc2c1)CCCC3  inactive
19               O=c1c2ccccc2[se]n1-c1ccccc1  inactive
20     CC(C)C(=O)c1cn(Cc2ccccc2C#N)c2ccccc12  inactive
21                COc1ccc(C(=O)N2CCCC2=O)cc1  inactive
22  CCCC(C)(COC(N)=O)COC(=O)NC(C)C (stereo not given)  inactive
23  O=C(Cn1cc(C(=O)c2ccccc2)c2ccccc21)NCc1ccco1  inactive
24  C[C@H]1CCC/C=C/C2C[C@H](O)CC2[C@H](O)/C=C/C(=O)O1 (stereo not given in full)    active
